Where do the numbers come from? From ChEMBL document CHEMBL1150015.

target: Purine nucleoside phosphorylase (Homo sapiens); assay: Second order rate constant for the inactivation of Purine Nucleoside Phosphorylase by compound in 0.05 M Phosphate Buffer and at a pH 7.4 (u=0.1 KCl) at 30.0 degree Centigrade
quantity-name: k (M⁻¹ s⁻¹)
Give a bare numeral; the unit M⁻¹ s⁻¹ is implied.

[
  {
    "smiles-representation": "Nc1nc(O)c2c(n1)C(=O)C=CC2=O",
    "system-tested": "Purine nucleoside phosphorylase (Homo sapiens)",
    "k [M⁻¹ s⁻¹]": 4.73
  },
  {
    "smiles-representation": "C=Cc1nc(O)c2c(n1)C(=O)C=CC2=O",
    "system-tested": "Purine nucleoside phosphorylase (Homo sapiens)",
    "k [M⁻¹ s⁻¹]": 3.1
  }
]

Would you kindly share the measured k for O=C1C=CC(=O)c2c(O)nc(CBr)nc21 ?
3.7

Would you kindly share the measured k for O=C1C=CC(=O)c2c(O)ncnc21 ?
1.62

Would you kindly share the measured k for O=C1C=CC(=O)c2c(O)nc(CCBr)nc21 ?
7.97

Would you kindly share the measured k for O=C1C=CC(=O)c2c(O)nc(-c3ccccc3)nc21 ?
15.9
